Value source: patent US12710427B2

# Test system: PC-3
# measurement-description: In vitro cell cytotoxicity assay (CellTiter-Glo)
# Format: cell-based
attribute-measured: IC50 (nM)
Dear colleague, please return just the value in nM, with no unit written.

molecule	attribute-measured	unit-label	quantitative-result
h7C3-4-MMAE: h7C3-4 conjugated with MMAE via cleavable valine-citrulline linker, average 3.8-4 MMAE per antibody (conjugate) VH: QVQLQQPGTVLVRPGASVKLSCKASGYAFTSSWIHWAKQRPGQGLEWIGQIRPNSGNTYYNEKFKVKATLTVDTSSSTAYVELSSLTSEDSAVYYCARYHYGFDYWGQGTLVTVSS VL: DVLMTQTPLSLPVSLGDQASISCRSSQSIVHSNGNTYLEWYLQKPGQSPKLLIYKVSNRFSGVPDRFSGSGSGTDFTLTISRVEAEDLGVYYCFQGAHLPWTFGGGTKLEIKR	IC50	nM	55.4

Attention now shifts to the item below.
**Query** Please look up its IC50: h7C3-5-MMAE: h7C3-5 conjugated with MMAE via cleavable valine-citrulline linker, average 3.8-4 MMAE per antibody (conjugate, non-natural residues, h7C3-5 conjugated with MMAE via cleavable valine-citrulline linker, average 3.8-4 MMAE per antibody) VH: QVQLVQSGAEVKKPGASVKVSCKASGYAFTSSWIHWVRQAPGQRLEWMGQIRPNSGNTYYNEKFKVRVTITRDTSASTAYMELSSLRSEDTAVYYCARYHYGFDYWGQGTLVTVSS VL: DIVMTQTPLSLSVTPGQPASISCRSSQSIVHSNGNTYLEWYLQKPGQSPQLLIYKVSNRFSGVPDRFSGSGSGTDFTLKISRVEAEDVGVYYCFQGAHLPWTFGGGTKVEIKR
**Result** 56.5
